experimental system: hTSHR (Homo sapiens, UniProt P16473)
Construct: expressed in transfected cells
Sequence (P16473 21-764): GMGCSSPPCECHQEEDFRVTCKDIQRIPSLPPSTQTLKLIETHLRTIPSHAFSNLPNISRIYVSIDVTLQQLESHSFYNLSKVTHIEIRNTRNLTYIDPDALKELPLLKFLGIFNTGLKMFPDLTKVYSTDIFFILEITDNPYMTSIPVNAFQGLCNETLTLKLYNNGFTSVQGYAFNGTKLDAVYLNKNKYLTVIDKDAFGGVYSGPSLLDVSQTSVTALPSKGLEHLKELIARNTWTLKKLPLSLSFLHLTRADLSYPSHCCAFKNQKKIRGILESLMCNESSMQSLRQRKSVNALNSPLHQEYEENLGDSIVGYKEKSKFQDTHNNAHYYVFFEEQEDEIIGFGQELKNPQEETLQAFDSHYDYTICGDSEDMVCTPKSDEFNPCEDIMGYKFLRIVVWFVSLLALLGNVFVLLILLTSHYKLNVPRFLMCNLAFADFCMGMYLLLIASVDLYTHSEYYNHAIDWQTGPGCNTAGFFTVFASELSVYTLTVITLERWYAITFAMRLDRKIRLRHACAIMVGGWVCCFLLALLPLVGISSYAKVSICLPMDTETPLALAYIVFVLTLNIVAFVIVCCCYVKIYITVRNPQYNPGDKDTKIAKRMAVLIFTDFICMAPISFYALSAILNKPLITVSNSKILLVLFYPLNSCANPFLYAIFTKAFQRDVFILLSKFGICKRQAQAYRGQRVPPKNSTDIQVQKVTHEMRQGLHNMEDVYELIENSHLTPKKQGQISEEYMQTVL
procedure summary: hTSHR TR-FRET cAMP Assay (inhibition of M22-stimulated cAMP production)
Format: cell-based
experimental setup: Expi293F Inducible cells stably expressing hTSHR; cAMP HTRF; stimulated with EC80 of anti-TSHR antibody M22; 15 min compound preincubation, 30 min at 37° C.; read-out: Activity (IC50 bins)
pIC50: −log10 of the molar value.
result type: pIC50

Specify reported pIC50 for the compound shown: C[C@H]1Oc2cc(NC(=O)NC(C)(C)C)ccc2N(Cc2cncc(C(F)(F)F)n2)C1=O [Example 169]
6.00 to 7.00

Specify reported pIC50 for the compound shown: CC(C)(C)NC(=O)Nc1ccc2c(c1)CCC(=O)N2Cc1ccccc1 [Example 1]
> 7.00

Specify reported pIC50 for the compound shown: C[C@@H](c1cccc(C#CC(C)(C)O)c1)n1c(=O)cnc2cc(NC(=O)NC(C)(C)C)ccc21 [Example 113]
< 6.00

Specify reported pIC50 for the compound shown: C[C@@H](c1ccc2c(c1)OCCC2)n1c(=O)cnc2cc(NC(=O)NC(C)(C)C)ccc21 [Example 152]
< 6.00

Specify reported pIC50 for the compound shown: CC(C)(C)NC(=O)Nc1ccc2c(c1)CCC(=O)N2C1CCc2ccccc21 (centres unmarked) [Example 309]
6.00 to 7.00

Specify reported pIC50 for the compound shown: C[C@H]1Oc2cc(NC(=O)NC3(C)CCCC3)ccc2N([C@@H](C)c2cccc(C(F)(F)F)n2)C1=O [Example 322]
> 7.00

Specify reported pIC50 for the compound shown: C[C@H]1Oc2cc(NC(=O)NC(C)(C)C)ccc2N(Cc2cccc(OC(F)F)c2)C1=O [Example 160]
> 7.00

Specify reported pIC50 for the compound shown: C[C@H]1Oc2cc(NC(=O)NC(C)(C)C)c(F)cc2N([C@@H](C)c2ccccc2)C1=O [Example 328]
6.00 to 7.00

###

experimental system: hTSHR (Homo sapiens, UniProt P16473)
Construct: expressed in transfected cells
procedure summary: hTSHR TR-FRET cAMP Assay (inhibition of M22-stimulated cAMP production)
Format: cell-based
experimental setup: Expi293F Inducible cells stably expressing hTSHR; cAMP HTRF; stimulated with EC80 of anti-TSHR antibody M22; 15 min compound preincubation, 30 min at 37° C.; read-out: Activity (IC50 bins)
result type: IC50

Specify reported IC50 for the molecule shown: "C[C@@H](c1cccc(Cl)c1)n1c(=O)cnc2cc(NC(=O)NC(C)(C)C)c(C(F)(F)F)cc21"
100 to 1000 nM

Specify reported IC50 for the molecule shown: "C[C@@H](c1cccc(CCN(C)C(=O)C(C)(C)O)c1)n1c(=O)cnc2cc(NC(=O)NC(C)(C)C)ccc21"
> 1000 nM

Specify reported IC50 for the molecule shown: "CC(C)(C)NC(=O)Nc1cc2c(cc1F)N(Cc1ccccc1)C(=O)CC2"
100 to 1000 nM

Specify reported IC50 for the molecule shown: "CC(C)(C)NC(=O)Nc1c(F)cc2c(c1F)CCC(=O)N2Cc1ccccc1"
100 to 1000 nM

###

experimental system: hTSHR (Homo sapiens, UniProt P16473)
Construct: expressed in transfected cells
procedure summary: hTSHR TR-FRET cAMP Assay (inhibition of M22-stimulated cAMP production)
Format: cell-based
experimental setup: Expi293F Inducible cells stably expressing hTSHR; cAMP HTRF; stimulated with EC80 of anti-TSHR antibody M22; 15 min compound preincubation, 30 min at 37° C.; read-out: Activity (IC50 bins)
result type: IC50

Specify reported IC50 for the molecule shown: "C[C@H]1Oc2cc(NC(=O)NC(C)(C)C)ccc2N(Cc2nccc(C(F)(F)F)n2)C1=O"
100 to 1000 nM

Specify reported IC50 for the molecule shown: "Cc1nc2cc(NC(=O)NC(C)(C)C)ccc2n([C@@H](C)c2cccc(OC(F)(F)F)c2)c1=O"
100 to 1000 nM

Specify reported IC50 for the molecule shown: "CC(C)(C)NC(=O)Nc1ccc2c(c1)CCC(=O)N2Cc1cccc(F)c1"
< 100 nM

Specify reported IC50 for the molecule shown: "C[C@@H](c1cccc(N(C)C)n1)n1c(=O)cnc2cc(NC(=O)NC(C)(C)C)ccc21"
100 to 1000 nM

Specify reported IC50 for the molecule shown: "Cc1cccc(CN2C(=O)CCc3cc(NC(=O)NC(C)(C)C)ccc32)c1C#N"
100 to 1000 nM

Specify reported IC50 for the molecule shown: "C[C@@H](c1ccccc1)n1c(=O)cnc2cc(NC(=O)NC(C)(C)C)c(CO)cc21"
> 1000 nM

Specify reported IC50 for the molecule shown: "C[C@H]1Oc2cc(NC(=O)NC3CCCCC3)ccc2N(Cc2cccc(C(F)(F)F)n2)C1=O"
< 100 nM

Specify reported IC50 for the molecule shown: C[C@H](c1ccnc(C(F)(F)F)n1)N1C(=O)[C@@H](C)Oc2cc(NC(=O)NC(C)(C)C)ccc21 (single isomer, unassigned)
> 1000 nM
